# credit: ChEMBL document CHEMBL4270536

Tested on: M21
testProtocol: Cell cycle arrest in human M21 cells assessed as accumulation at G2/M phase at 2 times IC50 after 24 hrs by DAPI staining based flow cytometry relative to control
Mark each entry true if its Activity sits below 10%, and false for all others.

Decide: Activity of CCNC(=O)Nc1ccc(S(=O)(=O)Oc2ccccc2I)cc1 strictly below 10%?
true

Input O=C(NCCCCl)Nc1ccc(S(=O)(=O)Oc2ccccc2I)cc1
false

Input CCNC(=O)Nc1ccc(S(=O)(=O)Oc2ccccc2C(C)C)cc1
true

Input CC(C)c1ccccc1OS(=O)(=O)c1ccc(NC(=O)NCC2CCCC2)cc1
false

Input CCCCCNC(=O)Nc1ccc(S(=O)(=O)Oc2ccccc2C(C)C)cc1
false

Input CCCCCNC(=O)Nc1ccc(S(=O)(=O)Oc2ccccc2I)cc1
false

Input CC(C)c1ccccc1OS(=O)(=O)c1ccc(NC(=O)NCCCCl)cc1
false

Input O=C(Nc1ccc(S(=O)(=O)Oc2ccccc2I)cc1)NC1CC1
false

Input CC(C)c1ccccc1OS(=O)(=O)c1ccc(NC(=O)NC2CCCC2)cc1
false

Input CCCNC(=O)Nc1ccc(S(=O)(=O)Oc2ccccc2I)cc1
false

Input O=C(NCCCl)Nc1ccc(S(=O)(=O)Oc2ccccc2I)cc1
false

Input O=C(NCC1CCCC1)Nc1ccc(S(=O)(=O)Oc2ccccc2I)cc1
false
